# experimental_details: In-vivo distribution and paw targeting in adjuvant arthritis model mice
# study_conditions: mouse, 15 mg/kg, Distribution in Liver, 8 h, iv ibuprofen 15 mg/kg
experimental_readout: concentration at 8 h (ng/g)
Dear colleague, please return just the value in ng/g, with no unit written.

Given CC(C)Cc1ccc(C(C)C(=O)O)cc1 (stereo not shown) [ibuprofen] , state its recorded concentration at 8 h.
6330

----------
# experimental_details: In-vivo distribution and paw targeting in adjuvant arthritis model mice
# study_conditions: mouse, 15 mg/kg, Distribution in paw, 0.5 h, iv ibuprofen 15 mg/kg
experimental_readout: concentration at 0.5 h
Answer by giving the amount and then stating its unit.

Given CC(C)Cc1ccc(C(C)C(=O)O)cc1 (stereo not shown) , state its recorded concentration at 0.5 h.
430 ng/g

----------
# experimental_details: In-vivo distribution and paw targeting in adjuvant arthritis model mice
# study_conditions: mouse, 15 mg/kg, Distribution in Kidney, 1 h, iv ibuprofen 15 mg/kg
experimental_readout: concentration at 1 h (ng/g)
Dear colleague, please return just the value in ng/g, with no unit written.

Given CC(C)Cc1ccc(C(C)C(=O)O)cc1 (stereo not shown) , state its recorded concentration at 1 h.
3900

----------
# experimental_details: In-vivo distribution and paw targeting in adjuvant arthritis model mice
# study_conditions: mouse, 15 mg/kg, Distribution in Kidney, 2 h, iv ibuprofen 15 mg/kg
experimental_readout: concentration at 2 h (ng/g)
Dear colleague, please return just the value in ng/g, with no unit written.

Given CC(C)Cc1ccc(C(C)C(=O)O)cc1 (stereo not shown) [ibuprofen] , state its recorded concentration at 2 h.
2680

----------
# experimental_details: In-vivo distribution and paw targeting in adjuvant arthritis model mice
# study_conditions: mouse, 15 mg/kg, Distribution in Heart, 12 h, iv ibuprofen 15 mg/kg
experimental_readout: concentration at 12 h
Answer by giving the amount and then stating its unit.

Given CC(C)Cc1ccc(C(C)C(=O)O)cc1 (stereo not shown) [ibuprofen] , state its recorded concentration at 12 h.
340 ng/g

----------
# experimental_details: In-vivo distribution and paw targeting in adjuvant arthritis model mice
# study_conditions: mouse, 15 mg/kg, Distribution in Heart, 8 h, iv ibuprofen 15 mg/kg
experimental_readout: concentration at 8 h (ng/g)
Dear colleague, please return just the value in ng/g, with no unit written.

Given CC(C)Cc1ccc(C(C)C(=O)O)cc1 (stereo not shown) [ibuprofen] , state its recorded concentration at 8 h.
550

----------
# experimental_details: In-vivo distribution and paw targeting in adjuvant arthritis model mice
# study_conditions: mouse, 15 mg/kg, Distribution in Liver, 2 h, iv ibuprofen 15 mg/kg
experimental_readout: concentration at 2 h
Answer by giving the amount and then stating its unit.

Given CC(C)Cc1ccc(C(C)C(=O)O)cc1 (stereo not shown) , state its recorded concentration at 2 h.
8320 ng/g

----------
# experimental_details: In-vivo distribution and paw targeting in adjuvant arthritis model mice
# study_conditions: mouse, 15 mg/kg, Distribution in Kidney, 8 h, iv ibuprofen 15 mg/kg
experimental_readout: concentration at 8 h (ng/g)
Dear colleague, please return just the value in ng/g, with no unit written.

Given CC(C)Cc1ccc(C(C)C(=O)O)cc1 (stereo not shown) [ibuprofen] , state its recorded concentration at 8 h.
620
